Source listed as patent US11964960B2.

target: S1P2 (Homo sapiens); construct: Flag; expressed in transfected cells; host or cells: Chinese hamster ovary (CHO) cells, doxycycline-inducible (CHO-S1P2-FL / CHO-S1PR2 FL); assay: GLISA RhoA activation - antagonist assay; type: cell-based; conditions: 1 μM compound, CHO-S1P2-FL cells
Sequence (O95136 whole entry, species assumed): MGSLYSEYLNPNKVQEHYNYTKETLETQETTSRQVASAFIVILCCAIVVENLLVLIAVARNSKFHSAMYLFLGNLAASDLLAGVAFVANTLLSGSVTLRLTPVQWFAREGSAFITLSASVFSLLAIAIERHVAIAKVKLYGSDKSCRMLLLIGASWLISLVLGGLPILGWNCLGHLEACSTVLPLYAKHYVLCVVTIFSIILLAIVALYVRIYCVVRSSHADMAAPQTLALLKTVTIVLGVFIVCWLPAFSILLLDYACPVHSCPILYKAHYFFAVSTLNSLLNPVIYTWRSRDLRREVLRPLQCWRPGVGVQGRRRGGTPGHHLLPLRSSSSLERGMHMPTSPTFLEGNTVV
endpoint label: inhibition at 1 µM (%)
Answer with a number only, understood to be in %.

Cc1c(C(=O)Cn2cc(Br)ccc2=O)cnn1Cc1ccccc1 ... 92

Sure, the documented inhibition at 1 µM for Cc1cc(C(=O)C(C)n2cc(Br)ccc2=O)c(C)n1Cc1ccn(C)n1 (centres unmarked) is 41

Sure, the documented inhibition at 1 µM for Cc1cc(C(=O)C(C)n2cc(Br)ccc2=O)c(C)n1Cc1cccc(C#N)c1 (centres unmarked) is 70

Sure, the documented inhibition at 1 µM for Cc1cccc(Cn2c(C)cc(C(=O)C(C)n3cc(Br)ccc3=O)c2C)c1 (centres unmarked) is 17

Sure, the documented inhibition at 1 µM for Cc1cc(C(=O)C(C)n2cc(Br)ccc2=O)c(C)n1Cc1cnn(C)c1 (centres unmarked) is 20

Sure, the documented inhibition at 1 µM for Cc1nc(Cn2c(C)cc(C(=O)C(C)n3cc(Br)ccc3=O)c2C)no1 (centres unmarked) is 48

Sure, the documented inhibition at 1 µM for Cc1cc(C(=O)C(C)n2cc(Br)ccc2=O)c(C)n1Cc1ncccn1 (centres unmarked) is 58

Sure, the documented inhibition at 1 µM for Cc1cc(C(=O)Cn2cc(Br)ccc2=O)nn1Cc1ccc(F)cc1 is 18

Sure, the documented inhibition at 1 µM for C#Cc1ccn(CC(=O)c2cnn(Cc3ccccc3)c2C)c(=O)c1 is 17

Sure, the documented inhibition at 1 µM for Cc1cc(C(=O)C(C)n2cc(Br)ccc2=O)c(C)n1Cc1cccc(S(C)(=O)=O)c1 (centres unmarked) is 35

Sure, the documented inhibition at 1 µM for Cc1cc(C(=O)C(C)n2cc(Br)ccc2=O)c(C)n1Cc1ccccc1 (centres unmarked) is 86

Sure, the documented inhibition at 1 µM for Cc1cc(C(=O)C(C)n2cc(Br)ccc2=O)c(C)n1Cc1ccccc1C#N (centres unmarked) is 63

Sure, the documented inhibition at 1 µM for C#Cc1cc(C)c(=O)n(CC(=O)c2cnn(Cc3ccccc3)c2C)c1 is 64

Sure, the documented inhibition at 1 µM for Cc1cc(C(=O)C(C)n2cc(Br)ccc2=O)c(C)n1Cc1cccc(F)c1 (centres unmarked) is 11
